- Tested on: Escherichia coli TOP10;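 further: peptides expressed intracellularly from a pBAD plasmid library in pooled LB shake-flask culture, induced with 0.3% L-arabinose, DNA abundance read by NGS, three biological replicates, DESeq2 with apeglm shrinkage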
- assay_overview: shrunken log2 fold change of peptide-encoding DNA abundance (4.5 h post-induction vs induction); higher = less antimicrobial activity (less host growth inhibition)
- experimental_setup: time post-induction: 4.5 h; library: site-saturation at positions 5, 18, 19, 20
shrunken log2 fold change for assorted sequences
value_kind: shrunken log2 fold change

residue_sequence: RRIRNRPPRLPRPRPRPHIAPRP
measurement: -0.621
//
residue_sequence: RRIRIRPPRLPRPRPRPNDIPRP
measurement: -1.11
//
residue_sequence: RRIRWRPPRLPRPRPRPVKQPRP
measurement: -0.092
//
residue_sequence: RRIRLRPPRLPRPRPRPSPVPRP
measurement: -0.186
//
residue_sequence: RRIRRRPPRLPRPRPRPMINPRP
measurement: -0.157
//
residue_sequence: RRIRARPPRLPRPRPRPEGWPRP
measurement: 1.38
//
residue_sequence: RRIRFRPPRLPRPRPRPIQPPRP
measurement: 0.137
//
residue_sequence: RRIRTRPPRLPRPRPRPRWKPRP
measurement: 0.0709
//
residue_sequence: RRIRIRPPRLPRPRPRPVMGPRP
measurement: -0.718
//
residue_sequence: RRIRGRPPRLPRPRPRPFVDPRP
measurement: 0.571
//
residue_sequence: RRIRDRPPRLPRPRPRPEYGPRP
measurement: 0.305
//
residue_sequence: RRIRKRPPRLPRPRPRPWHVPRP
measurement: -1.06
//
residue_sequence: RRIRSRPPRLPRPRPRPVYHPRP
measurement: 0.0286
//
residue_sequence: RRIRVRPPRLPRPRPRPGMNPRP
measurement: -0.145
//
residue_sequence: RRIRTRPPRLPRPRPRPYSSPRP
measurement: 0.00157
//
residue_sequence: RRIRVRPPRLPRPRPRPTCWPRP
measurement: 0.835
//
residue_sequence: RRIRERPPRLPRPRPRPDQNPRP
measurement: -0.108
//
residue_sequence: RRIRMRPPRLPRPRPRPWYLPRP
measurement: -0.0736
//
residue_sequence: RRIRGRPPRLPRPRPRPWPCPRP
measurement: 0.373
//
residue_sequence: RRIRKRPPRLPRPRPRPRLWPRP
measurement: 1.01
//
residue_sequence: RRIRPRPPRLPRPRPRPSSYPRP
measurement: -0.197
//
residue_sequence: RRIRVRPPRLPRPRPRPNSEPRP
measurement: -0.43
//
residue_sequence: RRIRMRPPRLPRPRPRPDNWPRP
measurement: 0.402
//
residue_sequence: RRIRYRPPRLPRPRPRPPIHPRP
measurement: -0.958
//
residue_sequence: RRIRCRPPRLPRPRPRPTHIPRP
measurement: -0.326
//
residue_sequence: RRIRTRPPRLPRPRPRPRMIPRP
measurement: 0.113
//
residue_sequence: RRIRLRPPRLPRPRPRPQANPRP
measurement: -0.289
//
residue_sequence: RRIRIRPPRLPRPRPRPMYNPRP
measurement: -0.429
//
residue_sequence: RRIRERPPRLPRPRPRPVWFPRP
measurement: -0.0467
//
residue_sequence: RRIRTRPPRLPRPRPRPKPDPRP
measurement: 0.214
//
residue_sequence: RRIRERPPRLPRPRPRPTIEPRP
measurement: -0.0577
//
residue_sequence: RRIRFRPPRLPRPRPRPNTDPRP
measurement: -0.384
//
residue_sequence: RRIRSRPPRLPRPRPRPVNHPRP
measurement: -0.462
//
residue_sequence: RRIRRRPPRLPRPRPRPKPDPRP
measurement: 0.493
//
residue_sequence: RRIRGRPPRLPRPRPRPCNMPRP
measurement: -0.0796
//
residue_sequence: RRIRCRPPRLPRPRPRPPTVPRP
measurement: 0.202
//
residue_sequence: RRIRKRPPRLPRPRPRPKWCPRP
measurement: 0.152
//
residue_sequence: RRIRYRPPRLPRPRPRPRMNPRP
measurement: 0.0193
//
residue_sequence: RRIRGRPPRLPRPRPRPMFHPRP
measurement: 0.074
//
residue_sequence: RRIRWRPPRLPRPRPRPMHIPRP
measurement: 0.0409
//
residue_sequence: RRIRNRPPRLPRPRPRPENIPRP
measurement: -0.435
//
residue_sequence: RRIRHRPPRLPRPRPRPLCWPRP
measurement: -0.0222
//
residue_sequence: RRIRDRPPRLPRPRPRPNLKPRP
measurement: 0.114
//
residue_sequence: RRIRTRPPRLPRPRPRPYCRPRP
measurement: -0.149
//
residue_sequence: RRIRVRPPRLPRPRPRPVQSPRP
measurement: -0.104
//
residue_sequence: RRIRARPPRLPRPRPRPSTVPRP
measurement: 0.123
//
residue_sequence: RRIRVRPPRLPRPRPRPAKDPRP
measurement: 0.00226
//
residue_sequence: RRIRIRPPRLPRPRPRPYCRPRP
measurement: 0.182
//
residue_sequence: RRIRVRPPRLPRPRPRPSKWPRP
measurement: -0.283
//
residue_sequence: RRIRDRPPRLPRPRPRPTNNPRP
measurement: 0.0553
//
residue_sequence: RRIRLRPPRLPRPRPRPCDVPRP
measurement: -0.255
//
residue_sequence: RRIRCRPPRLPRPRPRPFQWPRP
measurement: -0.0999
//
residue_sequence: RRIRQRPPRLPRPRPRPDDRPRP
measurement: -0.000777
//
residue_sequence: RRIRQRPPRLPRPRPRPSLMPRP
measurement: -0.112
//
residue_sequence: RRIRHRPPRLPRPRPRPVHNPRP
measurement: 0.154
//
residue_sequence: RRIRVRPPRLPRPRPRPPYSPRP
measurement: -0.384
//
residue_sequence: RRIRWRPPRLPRPRPRPYKLPRP
measurement: -0.327
//
residue_sequence: RRIRWRPPRLPRPRPRPAMWPRP
measurement: 0.433
//
residue_sequence: RRIRWRPPRLPRPRPRPHTEPRP
measurement: -0.0123
//
residue_sequence: RRIRLRPPRLPRPRPRPRHHPRP
measurement: -0.0411
//
residue_sequence: RRIRYRPPRLPRPRPRPSCRPRP
measurement: -0.6
//
residue_sequence: RRIRCRPPRLPRPRPRPGIHPRP
measurement: -0.405
//
residue_sequence: RRIRQRPPRLPRPRPRPRSNPRP
measurement: -0.108
